tested on: Plasmodium berghei; test: Screen against P. berghei liver stage (PbLuc), transformed with Luciferase, at 2uM; format: functional, HepG2; conditions: tested at 2 uM
Hit rate of the full screen: of about 68,000 compounds, about 2,700 (4%) showed an effect of 50% or more. Shown is part of a subset that was picked to be rich in strong results.
REPORTED_METRIC: INHIBITION (%)
# unit: % | format: bare number

COMPOUND	RESULT_NUMBER
Cc1ccc(NC(=O)CNC(C)CN2CCCCC2)c(F)c1 (stereo unspecified)	64.35
CN1[C@@H](C(=O)NCC2CC2)C[C@H]2CN(Cc3ccsc3)C[C@H]21	1.29
CC(=O)N1CCC2(CC1)CN(CC1CC1)c1ccc(F)cc12	-18.44
Cc1cnc(N2C[C@@H]3[C@@H](C2)OCC(=O)N3CCN(C)C)nc1	30.58
O=C(CCc1ccccc1)NCC1CCN(Cc2ccsc2)CC1	13.22
Cc1cc(N(C)C)nc(C2COCCN2Cc2csc(C)n2)n1 (stereo unspecified)	-27.45
CC(C)c1cc(C(=O)N2CCC3(CC2)c2ccccc2[C@@H](N)[C@@H]3O)cs1	16.28
CC(C)NS(=O)(=O)c1cc(C(=O)O)cc(-c2ccc(CN(C)C)cc2)c1	15.42
CCn1cnnc1CNC(=O)N(C)Cc1ccc2c(c1)OCO2	-19.35
CCC1=N[C@@]2(CC[C@@H]3CN(Cc4ccc(Cl)cc4)C[C@@H]32)C(=O)N1C	17.51

## Input Would you mind telling me what INHIBITION value was observed for Cc1nc(CN2C[C@H]3C[C@H](C(=O)NCC4CC4)N(C)[C@H]3C2)cs1 ?
## Output 55.66

## Input Would you mind telling me what INHIBITION value was observed for Cc1cc(C(F)(F)F)c2c(=O)n(Cc3cc(C)on3)n(C)c2n1 ?
## Output 1.36

## Input Would you mind telling me what INHIBITION value was observed for CC(C)NS(=O)(=O)c1cc(C(=O)O)cc(-c2ccccc2C#N)c1 ?
## Output -10.44

## Input Would you mind telling me what INHIBITION value was observed for NC(=O)CN1CCC(C(=O)NCCn2cc(Cl)cn2)CC1 ?
## Output -10.84

## Input Would you mind telling me what INHIBITION value was observed for Cc1cccc2nc(CSCC(=O)Nc3nnc(C(C)C)s3)cc(=O)n12 ?
## Output 52.21

## Input Would you mind telling me what INHIBITION value was observed for O=C(NCc1ccccc1)NCC1CCN(Cc2ccsc2)CC1 ?
## Output 51

## Input Would you mind telling me what INHIBITION value was observed for CC(C)(CNC(=O)Nc1ccc(S(=O)(=O)C(F)F)cc1)N1CCOCC1 ?
## Output 53.63

## Input Would you mind telling me what INHIBITION value was observed for CCC(C)(CNC(=O)Nc1nccs1)N1CCOCC1 (stereo unspecified) ?
## Output 21.24

## Input Would you mind telling me what INHIBITION value was observed for CNc1cc(C)nc(C2COCCN2CCc2ccccc2)n1 (stereo unspecified) ?
## Output -3.96

## Input Would you mind telling me what INHIBITION value was observed for CC(c1cccc(-c2cn(Cc3ccoc3)nn2)c1)N(C)C (stereo unspecified) ?
## Output 28.62

## Input Would you mind telling me what INHIBITION value was observed for CCc1nc(NC(=O)NCCc2cscn2)nn1C ?
## Output 1.88

## Input Would you mind telling me what INHIBITION value was observed for CCC(C)(CC(=O)OC)NC(=O)c1ccc(C(C)=O)cc1 (stereo unspecified) ?
## Output 27.85

## Input Would you mind telling me what INHIBITION value was observed for CC(C)(CNC(=O)Nc1nccs1)N1CCOCC1 ?
## Output 64.2

## Input Would you mind telling me what INHIBITION value was observed for Cc1nnc(SCCNc2cc(C3CC3)ncn2)s1 ?
## Output 12.17

## Input Would you mind telling me what INHIBITION value was observed for Cc1cc2n(n1)CC(CNCc1cc(C)on1)CN2 (stereo unspecified) ?
## Output 57

## Input Would you mind telling me what INHIBITION value was observed for Cc1ccc2c(c1)C1(CCN(C(N)=O)CC1)CN2CC1CC1 ?
## Output 52.12
